# targetOfAssay: Pgp (Homo sapiens)
# Sequence (P08183 whole entry): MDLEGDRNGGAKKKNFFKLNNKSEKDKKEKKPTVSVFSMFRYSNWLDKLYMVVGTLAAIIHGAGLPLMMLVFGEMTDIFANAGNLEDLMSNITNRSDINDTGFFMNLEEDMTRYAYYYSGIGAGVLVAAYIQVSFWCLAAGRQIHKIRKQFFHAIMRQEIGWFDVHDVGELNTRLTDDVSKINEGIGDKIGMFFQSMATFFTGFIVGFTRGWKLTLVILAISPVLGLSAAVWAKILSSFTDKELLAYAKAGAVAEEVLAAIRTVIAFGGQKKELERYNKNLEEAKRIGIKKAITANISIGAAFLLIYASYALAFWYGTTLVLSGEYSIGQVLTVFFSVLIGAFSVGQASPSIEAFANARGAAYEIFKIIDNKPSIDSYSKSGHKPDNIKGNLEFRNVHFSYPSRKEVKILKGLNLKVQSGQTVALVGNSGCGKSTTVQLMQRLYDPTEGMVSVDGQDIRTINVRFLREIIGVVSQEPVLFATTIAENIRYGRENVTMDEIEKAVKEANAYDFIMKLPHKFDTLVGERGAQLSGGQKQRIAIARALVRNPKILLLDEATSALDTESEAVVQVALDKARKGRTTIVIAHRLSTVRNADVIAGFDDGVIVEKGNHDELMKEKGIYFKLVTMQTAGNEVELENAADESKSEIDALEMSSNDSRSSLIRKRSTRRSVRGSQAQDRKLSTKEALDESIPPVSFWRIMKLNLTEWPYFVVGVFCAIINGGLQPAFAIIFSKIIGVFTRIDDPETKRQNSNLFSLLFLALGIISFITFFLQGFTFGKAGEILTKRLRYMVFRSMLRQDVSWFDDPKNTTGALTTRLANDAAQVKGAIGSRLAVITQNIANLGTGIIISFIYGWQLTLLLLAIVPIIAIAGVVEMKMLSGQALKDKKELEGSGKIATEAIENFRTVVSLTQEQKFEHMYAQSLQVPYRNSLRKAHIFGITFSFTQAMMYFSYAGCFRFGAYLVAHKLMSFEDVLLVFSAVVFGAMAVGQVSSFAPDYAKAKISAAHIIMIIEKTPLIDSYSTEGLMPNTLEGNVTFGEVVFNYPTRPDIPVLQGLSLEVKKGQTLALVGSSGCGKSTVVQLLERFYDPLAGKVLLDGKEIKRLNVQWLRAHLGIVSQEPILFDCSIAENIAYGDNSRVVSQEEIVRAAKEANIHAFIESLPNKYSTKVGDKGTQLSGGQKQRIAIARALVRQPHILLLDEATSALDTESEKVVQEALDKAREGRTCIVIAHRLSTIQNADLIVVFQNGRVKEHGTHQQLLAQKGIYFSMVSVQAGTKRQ
# measurementParameters: human, 10 µM
measuredAttribute: Pgp inhibition, rhodamine efflux: treated/control ratio

O=C(O)c1ccc(/C=N/N=C2c3ccccc3-c3ccccc32)cc1
0.84
Cc1cc(O)nc2cc3oc4ccccc4c3cc12
0.84
COc1cc2c[n+](C)c3c4cc(OC)c(OC)cc4ccc3c2cc1OC
0.64
Cn1ncc2c(Nc3cccc(Cl)c3)nc(Nc3cccc(Cl)c3)nc21
0.73
Cn1ncc2c(NCCc3ccccc3)nc(Cl)nc21
0.77

----------
# targetOfAssay: ABCG2 (Homo sapiens)
# methodNotes: Pheophorbide a (PhA) accumulation screening assay
# Type: cell-based
# measurementParameters: human, 18 h, 10 µM
measuredAttribute: Pheophorbide a total, % of FTC response (%)

Cn1ncc2c(Nc3cccc(Cl)c3)nc(Nc3cccc(Cl)c3)nc21
84.1

[P] COc1cc2c[n+](C)c3c4cc(OC)c(OC)cc4ccc3c2cc1OC
[Q] Cc1cc(O)nc2cc3oc4ccccc4c3cc12
Please state the entry with greater Pheophorbide a total, % of FTC response among P and Q . Answer = label.
P
(P: 104.5%, Q: 63.8%)

----------
# targetOfAssay: ABCG2 (Homo sapiens)
# Sequence (Q9UNQ0 1-655): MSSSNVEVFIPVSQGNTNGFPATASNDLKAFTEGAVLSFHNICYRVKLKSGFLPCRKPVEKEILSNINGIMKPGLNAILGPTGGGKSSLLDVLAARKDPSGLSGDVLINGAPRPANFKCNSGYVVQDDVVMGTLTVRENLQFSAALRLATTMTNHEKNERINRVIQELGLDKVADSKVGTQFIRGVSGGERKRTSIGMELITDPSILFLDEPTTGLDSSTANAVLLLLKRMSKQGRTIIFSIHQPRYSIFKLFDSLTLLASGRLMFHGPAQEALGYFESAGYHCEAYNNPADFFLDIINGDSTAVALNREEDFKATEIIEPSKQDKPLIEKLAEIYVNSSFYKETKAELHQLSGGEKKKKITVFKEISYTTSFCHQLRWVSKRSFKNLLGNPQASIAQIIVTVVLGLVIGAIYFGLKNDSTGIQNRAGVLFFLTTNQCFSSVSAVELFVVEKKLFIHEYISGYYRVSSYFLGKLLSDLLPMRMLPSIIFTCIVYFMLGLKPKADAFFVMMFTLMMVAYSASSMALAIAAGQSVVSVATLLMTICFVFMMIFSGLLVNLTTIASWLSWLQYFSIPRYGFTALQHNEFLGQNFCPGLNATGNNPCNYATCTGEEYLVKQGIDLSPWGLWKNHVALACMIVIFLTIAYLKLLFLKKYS
# methodNotes: BODIPY-prazosin efflux, ABCG2-transfected HEK293 cells (flow cytometry)
# measurementParameters: 10 μM compound
measuredAttribute: BODIPY-prazosin efflux: treated/control ratio

Look over these answered cases.
Cc1cc(O)nc2cc3oc4ccccc4c3cc12
3.6
COc1ccc2c3c([nH]c2c1)[C@H](C=C(C)C)N1C(=O)[C@@H]2CCCN2C(=O)[C@@H]1C3 [FTC, fumitremorgin C, reference compound]
3.5
Cn1ncc2c(Nc3cccc(Cl)c3)nc(Nc3cccc(Cl)c3)nc21
5.9
COc1cc2c[n+](C)c3c4cc(OC)c(OC)cc4ccc3c2cc1OC
2.6

[I] Cn1ncc2c(NCCc3ccccc3)nc(Cl)nc21
[II] O=C(O)c1ccc(/C=N/N=C2c3ccccc3-c3ccccc32)cc1
Given the listed items, does I or II have the lesser reported BODIPY-prazosin efflux: treated/control ratio? Answer = label.
II

----------
# targetOfAssay: ABCG2 (Homo sapiens, UniProt Q9UNQ0)
# methodNotes: Pheophorbide a (PhA) accumulation screening assay
# Type: cell-based
Recorded measurements of pIC50, one per entry
// pIC50: -log10(molar conc.)

Cn1ncc2c(Nc3cccc(Cl)c3)nc(Nc3cccc(Cl)c3)nc21
5.35

Consider the record given below.
Find the recorded pIC50 belonging to Cc1cc(O)nc2cc3oc4ccccc4c3cc12 and report it.
5.43

Data provenance: patent US9937217B2
